assay-overview: Half-life in mouse at […], iv formulated as solution
Format: ADME, organism-based
settings: in vivo, dose 2.4 µmol/kg

>  <molecule-smiles>
CC(=O)N[C@@H]1CCC[C@H](C(=O)Nc2cc(-c3cnn4c3CC(C)(C)C4)c(F)cn2)C1

>  <half-life (min)>
9.6

$$$$

====

target-or-test-system: Cyclin-dependent kinase 2/cyclin E1 (Homo sapiens, UniProt P24941)
assay-overview: Inhibition of recombinant full length human CDK2/CyclinE expressed in insect cells using FL-Ahx-QSPKKG-CONH2 as substrate preincubated for 10 mins followed by MgCl2 addition and measured after 90 mins in presence of 5 mM ATP by mobility shift assay
pIC50: −log10 of the molar value.
Reported pIC50 values for a set of molecules

>  <molecule-smiles>
CC(=O)N[C@@H]1CCC[C@H](C(=O)Nc2cc(-c3cnn4c3CCCC4)c(Cl)cn2)C1

>  <pIC50>
6.21

$$$$
>  <molecule-smiles>
CC(=O)N[C@@H]1CCC[C@H](C(=O)Nc2cc(-c3cnn4c3CC(C)(C)C4)c(Cl)cn2)C1

>  <pIC50>
7.28

$$$$
>  <molecule-smiles>
CC(=O)N[C@@H]1CCC[C@H](C(=O)Nc2cc(-c3cnn4c3CC(C)(C)C4)c(F)cn2)C1

>  <pIC50>
7.18

$$$$

====

assay-overview: Volume of distribution at steady state in Beagle dog at 5.2 umol/kg, iv administered as 0.25 hrs formulated as solution in 5% DMSO
Type: ADME, organism-based, Canis lupus familiaris
settings: in vivo, dose 5.2 µmol/kg, read-out: Vdss

>  <molecule-smiles>
CC(=O)N[C@@H]1CCC[C@H](C(=O)Nc2cc(-c3cnn4c3CCCC4)c(Cl)cn2)C1

>  <Vd>
0.9 L/kg

$$$$

====

assay-overview: Clearance in mouse plasma at […], iv
Assay type: ADME
settings: dose 2.4 µmol/kg

>  <molecule-smiles>
CC(=O)N[C@@H]1CCC[C@H](C(=O)Nc2cc(-c3cnn4c3CC(C)(C)C4)c(F)cn2)C1

>  <result-unit>
mL/min/kg

>  <clearance>
70

$$$$

====

assay-overview: Intrinsic clearance in dog cryopreserved hepatocytes assessed per million cells […]
Assay type: ADME, cell-based, Canis lupus familiaris, Hepatocyte
settings: read-out: CLH
Reported hepatocyte CLint values for a set of compounds

>  <molecule-smiles>
COc1cc(F)ccc1-c1ccnc(NC(=O)[C@H]2CCC[C@@H](NC(C)=O)C2)c1

>  <hepatocyte CLint>
5.9 µL/min/1e6 cells

$$$$
>  <molecule-smiles>
CC(=O)N[C@@H]1CCC[C@H](C(=O)Nc2cc(-c3cnn4c3CCCC4)c(Cl)cn2)C1

>  <hepatocyte CLint>
14 µL/min/1e6 cells

$$$$
>  <molecule-smiles>
CC(=O)N[C@@H]1CCC[C@H](C(=O)Nc2cc(-c3cnn4c3CC(C)(C)C4)c(Cl)cn2)C1

>  <hepatocyte CLint>
11 µL/min/1e6 cells

$$$$
>  <molecule-smiles>
CC(=O)N[C@@H]1CCC[C@H](C(=O)Nc2cc(-c3cnn4c3CC(C)(C)C4)c(F)cn2)C1

>  <hepatocyte CLint>
23 µL/min/1e6 cells

$$$$

====

target-or-test-system: Cyclin-dependent kinase 9 (Homo sapiens, UniProt P50750)
Sequence (P50750 whole entry): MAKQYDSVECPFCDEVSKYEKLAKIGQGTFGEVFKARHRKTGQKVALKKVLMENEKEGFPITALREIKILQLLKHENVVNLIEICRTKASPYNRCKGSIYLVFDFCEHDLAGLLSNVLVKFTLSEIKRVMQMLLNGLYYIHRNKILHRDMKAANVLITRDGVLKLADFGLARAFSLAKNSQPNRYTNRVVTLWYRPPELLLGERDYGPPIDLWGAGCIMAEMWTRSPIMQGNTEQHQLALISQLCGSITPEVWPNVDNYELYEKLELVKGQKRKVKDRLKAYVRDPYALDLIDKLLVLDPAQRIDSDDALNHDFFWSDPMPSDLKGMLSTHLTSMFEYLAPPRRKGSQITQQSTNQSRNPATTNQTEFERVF
assay-overview: Inhibition of CDK9 in human MV4-11 cells assessed as induction of caspase-3/7 activation measured after 6 hrs followed by Caspase-glo reagent based assay
Type: cell-based
Reported log10(EC50) values for a set of compounds
reported-endpoint: log10(EC50) (log10 of the value in nM)

>  <compound>
CC(=O)N[C@@H]1CCC[C@H](C(=O)Nc2cc(-c3cnn4c3OCCC4)c(Cl)cn2)C1

>  <number>
2.41

$$$$
>  <compound>
CC(=O)N[C@@H]1CC[C@H](C(=O)Nc2cc(-c3cnn4c3CC(C)(C)C4)c(Cl)cn2)C1

>  <number>
1.18

$$$$
>  <compound>
CC1(C)Cc2c(-c3cc(NC(=O)[C@H]4C[C@@H](O)C4)ncc3Cl)cnn2C1

>  <number>
1.58

$$$$
>  <compound>
CC(=O)N[C@@H]1CCC[C@H](C(=O)Nc2cc(-c3cnn4c3CCCC4)ccn2)C1

>  <number>
2.64

$$$$
>  <compound>
CC(=O)N[C@@H]1CCC[C@H](C(=O)Nc2cc(-c3cnc4n3CCCC4)c(Cl)cn2)C1

>  <number>
3.08

$$$$
>  <compound>
CC(=O)N[C@@H]1CCC[C@H](C(=O)Nc2cc(-c3cnn4c3COCC4)c(Cl)cn2)C1

>  <number>
3.28

$$$$
>  <compound>
CC(=O)N[C@@H]1CCC[C@H](C(=O)Nc2cc(-c3cnn4c3CCC4)c(Cl)cn2)C1

>  <number>
2.52

$$$$
>  <compound>
CC(=O)N[C@@H]1CCC[C@H](C(=O)Nc2cc(-c3cnn4c3CCCC4)c(F)cn2)C1

>  <number>
2.20

$$$$
>  <compound>
CC(=O)N[C@@H]1CCC[C@H](C(=O)Nc2cc(-c3cnc4n3CCC4)c(Cl)cn2)C1

>  <number>
2.85

$$$$
>  <compound>
CC(=O)N[C@@H]1CCC[C@H](C(=O)Nc2cc(-c3cnn4c3CC(C)(C)CC4)c(F)cn2)C1

>  <number>
1.18

$$$$
>  <compound>
CC(=O)N[C@@H]1CCC[C@H](C(=O)Nc2cc(-c3cnn(C)c3C)c(Cl)cn2)C1

>  <number>
2.75

$$$$
>  <compound>
CC(=O)N[C@@H]1CCC[C@H](C(=O)Nc2cc(-c3cnc(C)n3C(C)C)ccn2)C1

>  <number>
2.82

$$$$
>  <compound>
CC(=O)N[C@@H]1CCC[C@H](C(=O)Nc2cc(-c3cnn4ccccc34)c(Cl)cn2)C1

>  <number>
2.18

$$$$
>  <compound>
CC(=O)N[C@@H]1CCC[C@H](C(=O)Nc2cc(-c3cnn4c3CC(C)C4)c(Cl)cn2)C1 (stereo in doubt; 28)

>  <number>
1.96

$$$$
>  <compound>
CC(=O)N[C@@H]1CCC[C@H](C(=O)Nc2cc(-c3cnn4c3CCCCC4)c(Cl)cn2)C1

>  <number>
2.26

$$$$
>  <compound>
CC(=O)N[C@@H]1CCC[C@H](C(=O)Nc2cc(-c3cnn4c3CC(C)(C)C4)ccn2)C1

>  <number>
2.00

$$$$
>  <compound>
CC(=O)N[C@@H]1CCC[C@H](C(=O)Nc2cc(-c3cnn4c3CN(C)CC4)c(Cl)cn2)C1

>  <number>
2.96

$$$$
>  <compound>
CC(=O)N[C@@H]1CCC[C@H](C(=O)Nc2cc(-c3cnn4c3CC(C)C4)c(Cl)cn2)C1 (stereo in doubt; 27)

>  <number>
1.89

$$$$
>  <compound>
CC(=O)N[C@@H]1CCC[C@H](C(=O)Nc2cc(-c3cnn4c3CC(C)(C)C4)c(F)cn2)C1

>  <number>
1.46

$$$$
>  <compound>
CC(=O)N[C@@H]1CCC[C@H](C(=O)Nc2cc(-c3cnn4c3NCCC4)c(Cl)cn2)C1

>  <number>
2.83

$$$$
>  <compound>
CC(=O)N[C@@H]1CCC[C@H](C(=O)Nc2cc(-c3cnn4c3CC(C)(C)C4)c(C#N)cn2)C1

>  <number>
2.15

$$$$
>  <compound>
CC(=O)N[C@@H]1CCC[C@H](C(=O)Nc2cc(-c3cnn4c3CC(C)(C)CC4)ccn2)C1

>  <number>
1.59

$$$$

====

assay-overview: Solubility of compound in phosphate buffer at pH 7.4 using dried form of sample
Type: physicochemical
settings: phosphate buffer, read-out: solubility
Reported solubility values for a set of molecules

>  <molecule-smiles>
CC(=O)N[C@@H]1CCC[C@H](C(=O)Nc2cc(-c3cnn4c3CCCCC4)c(Cl)cn2)C1

>  <solubility>
104 µM

$$$$
>  <molecule-smiles>
CC(=O)N[C@@H]1CCC[C@H](C(=O)Nc2cc(-c3cnn4c3CCC4)c(Cl)cn2)C1

>  <solubility>
160 µM

$$$$
>  <molecule-smiles>
CC(=O)N[C@@H]1CCC[C@H](C(=O)Nc2cc(-c3cnn(C)c3C)c(Cl)cn2)C1

>  <solubility>
960 µM

$$$$
>  <molecule-smiles>
CC(=O)N[C@@H]1CCC[C@H](C(=O)Nc2cc(-c3cnn4c3CC(C)(C)C4)c(C#N)cn2)C1

>  <solubility>
380 µM

$$$$
>  <molecule-smiles>
CC(=O)N[C@@H]1CCC[C@H](C(=O)Nc2cc(-c3cnn4c3CC(C)(C)CC4)c(F)cn2)C1

>  <solubility>
160 µM

$$$$
>  <molecule-smiles>
CC(=O)N[C@@H]1CCC[C@H](C(=O)Nc2cc(-c3cnc4n3CCC4)c(Cl)cn2)C1

>  <solubility>
490 µM

$$$$
>  <molecule-smiles>
CC(=O)N[C@@H]1CCC[C@H](C(=O)Nc2cc(-c3cnc4ccccn34)c(Cl)cn2)C1

>  <solubility>
120 µM

$$$$
>  <molecule-smiles>
CC(=O)N[C@@H]1CCC[C@H](C(=O)Nc2cc(-c3cnc(C)n3C(C)C)ccn2)C1

>  <solubility>
660 µM

$$$$
>  <molecule-smiles>
CC(=O)N[C@@H]1CCC[C@H](C(=O)Nc2cc(-c3cnn4c3CN(C)CC4)c(Cl)cn2)C1

>  <solubility>
870 µM

$$$$
